test system: 817829-284-R-J1-PDC spheroids with HUVEC/MSC, viability; test: Anticancer human tumor 817829-284-R-J1-PDC patient-derived colon adenocarcinoma cell line growth inhibition [TAK]; details: second compound 30 µM; first compound 0.001 µM; active compounds read low
observation_type: viability, T/C

COC1CC2CCC(C)C(O)(O2)C(=O)C(=O)N2CCCCC2C(=O)OC(C(C)CC2CCC(OCCO)C(OC)C2)CC(=O)C(C)C=C(C)C(O)C(OC)C(=O)C(C)CC(C)C=CC=CC=C1C (centres undefined) + CC(C)NCC(C(=O)N1CCN(c2ncnc3c2C(C)CC3O)CC1)c1ccc(Cl)cc1    7.4%
CC(C)CC(NC(=O)C(Cc1ccccc1)NC(=O)c1cnccn1)B(O)O (centres undefined) + CC(C)NCC(C(=O)N1CCN(c2ncnc3c2C(C)CC3O)CC1)c1ccc(Cl)cc1    9.25%
CC(C)CC(NC(=O)CNC(=O)c1cc(Cl)ccc1Cl)B1OC(=O)CC(CC(=O)O)(C(=O)O)O1 (centres undefined) + CC(C)NCC(C(=O)N1CCN(c2ncnc3c2C(C)CC3O)CC1)c1ccc(Cl)cc1    4.38%

Exercise: Supply viability, T/C value. Item: CC(C)n1nc(-c2ccc3oc(N)nc3c2)c2c(N)ncnc21 + CC(C)NCC(C(=O)N1CCN(c2ncnc3c2C(C)CC3O)CC1)c1ccc(Cl)cc1
Key: 6.66%
